observed.property: IC50 (nM)
Answer with a number only, understood to be in nM.

Name the value of IC50 reported for N#Cc1cc(-c2ncnc(Nc3ccc(N4CCN(C5COC5)CC4)cc3)n2)ccc1OC1CCOCC1 when tested on IKKε (IKBKE) (Homo sapiens, UniProt Q14164).
Sequence (Q14164 whole entry): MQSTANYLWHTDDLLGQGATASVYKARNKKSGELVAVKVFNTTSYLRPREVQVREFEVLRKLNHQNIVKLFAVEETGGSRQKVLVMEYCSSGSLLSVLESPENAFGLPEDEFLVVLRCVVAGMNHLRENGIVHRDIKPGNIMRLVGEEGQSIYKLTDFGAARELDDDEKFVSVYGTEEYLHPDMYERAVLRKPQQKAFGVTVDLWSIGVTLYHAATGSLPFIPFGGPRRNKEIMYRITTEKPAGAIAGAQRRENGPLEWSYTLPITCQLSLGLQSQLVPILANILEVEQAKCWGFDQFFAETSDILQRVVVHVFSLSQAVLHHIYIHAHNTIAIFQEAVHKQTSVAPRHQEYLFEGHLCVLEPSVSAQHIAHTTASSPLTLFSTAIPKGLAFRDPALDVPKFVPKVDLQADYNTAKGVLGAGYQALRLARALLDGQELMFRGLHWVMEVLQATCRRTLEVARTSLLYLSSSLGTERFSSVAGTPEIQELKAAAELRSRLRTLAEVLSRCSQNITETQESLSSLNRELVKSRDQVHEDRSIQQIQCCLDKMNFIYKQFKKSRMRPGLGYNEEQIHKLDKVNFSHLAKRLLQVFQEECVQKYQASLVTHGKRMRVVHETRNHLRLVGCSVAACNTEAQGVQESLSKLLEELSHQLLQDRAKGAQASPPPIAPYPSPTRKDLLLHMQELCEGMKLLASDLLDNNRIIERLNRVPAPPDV
5.59

From: patent US11572590B2
